Hello, the source for this data is patent US20210206856A1, in case you need it.

- MEASURED ON: T1, mouse MAdCAM expressed on cells (mouse, UniProt Q61826 22-405)
- T1 construct: whole, on cells
- T1 sequence (looked up): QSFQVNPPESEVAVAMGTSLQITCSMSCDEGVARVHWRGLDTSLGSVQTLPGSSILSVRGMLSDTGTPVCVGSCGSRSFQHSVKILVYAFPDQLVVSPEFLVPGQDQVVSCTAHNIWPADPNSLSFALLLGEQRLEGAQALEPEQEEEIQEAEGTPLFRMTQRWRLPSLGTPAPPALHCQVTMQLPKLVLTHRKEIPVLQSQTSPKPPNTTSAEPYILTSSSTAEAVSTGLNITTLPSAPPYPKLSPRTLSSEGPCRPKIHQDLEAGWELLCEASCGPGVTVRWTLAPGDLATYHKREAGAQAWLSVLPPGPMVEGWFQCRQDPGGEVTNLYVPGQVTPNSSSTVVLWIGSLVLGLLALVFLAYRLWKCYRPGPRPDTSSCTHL
- PROTOCOL DETAILS: cell binding

[
  {
    "BINDER": "MAdCAM Antibody Table 2 Clone 67 (antibody, human IgG1, V domains shown) VH: QVQLVQSGAEVKKPGASVKVSCKASGYTFTGYYMHWVRQAPGQGLEWMGMIYPRDGSTSYAQKFQGRVTMTRDTSTSTVYMELSSLRSEDTAVYYCAMTGWGYGMDVWGKGTTVTVSS VL: DIQMTQSPSSLSASVGDRVTITCRASQGINNYLAWYQQKPGKAPKLLIYDASTLQSGVPSRFSGSGSGTDFTLTISSLQPEDFATYYCQQSYSAPPTFGQGTKLEIK",
    "binding result": "no binding"
  },
  {
    "BINDER": "MAdCAM Antibody Table 2 Clone 30 (antibody, human IgG1, V domains shown) VH: EVQLLESGGGLVQPGGSLRLSCAASGFTFSSYAMHWVRQAPGKGLEWVSGISGSGGSAYYADSVKGRFTISRDNSKNTLYLQMNSLRAEDTAVYYCATSQAPVDYYYYGMDVWGQGTTVTVSS VL: DIQMTQSPSSLSASVGDRVTITCRASQSISSWLAWYQQKPGKAPKLLIYAASNLQRGVPSRFSGSGSGTDFTLTISSLQPEDFATYYCQQSYSIPITFGQGTKVEIK",
    "binding result": "binds"
  },
  {
    "BINDER": "MAdCAM Antibody Table 2 Clone 53 (antibody, human IgG1, V domains shown) VH: QVQLVQSGAEVKKPGASVKVSCKASGYTFTSYYMHWVRQAPGQGLEWMGWMNPNSGNTGYAQKFQGRVTMTRDTSTSTVYMELSSLRSEDTAVYYCAREGLGYCTNGVCWNYYGMDVWGQGTLVTVSS VL: DIQMTQSPSSLSASVGDRVTITCRASQGISSWLAWYQQKPGKAPKLLIYGASSLQSGVPSRFSGSGSGTDFTLTISSLQPEDFATYYCQQSYSTPYTFGQGTKVEIK",
    "binding result": "no binding"
  }
]
